caspase-3 activation values, listed per item
procedureSummary: Cellular Toxicity (caspase-3) Jurkat (AID 655);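 also: cells exposed to compound for 16 h at 37 °C before reading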
conditionNotes: Jurkat caspase-3 activation, luminescence; at 92.2 µM (top of the series), DMSO = 0%, tamoxifen = 100%
Source text: NIH Chemical Genomics Center [NCGC] NIH Molecular Libraries Screening Centers Network [MLSCN] National Institutes of Environmental Health Sciences [NIEHS] National Toxicology Program [NTP] We have developed a 1536-well cell-based assay for quantitative high throughput screening (qHTS) against a number of cell lines to determine in vitro caspase 3/7 of small molecules. […] 7. Detection; Luminescence; Viewlux plate reader […]
Records with an inconclusive call do not appear.
Report only the number, with the unit % understood.

Consider the reported caspase-3 activation for these compounds:
[[record]]
linenotation = "Nc1cccc(O)c1"
resultvalue = 0.69

[[record]]
linenotation = "CCc1ccccc1"
resultvalue = 1.71


Now consider a different compound.
Query: # lookup: caspase-3 activation of FC(F)(F)c1cccc(Cl)c1
Result: -0.146
